- Target: HLA-A*69:01
- Test: IEDB peptide-MHC binding, purified MHC/direct/fluorescence; filed as Kd, often an IC50 or EC50 that approximates it; bounds were set here for any values at or beyond the usual limits of such assays
- Settings: source organism: Salmonella enterica subsp. enterica serovar Typhimurium
Readout label: Kd

Sequence	Result
KQPNRPLFI	≥ 20 µM

---

Kd: recorded values
- Target: HLA-A*26:01
- Test: IEDB peptide-MHC binding, purified MHC/competitive/radioactivity; filed as Kd, often an IC50 or EC50 that approximates it; bounds were set here for any values at or beyond the usual limits of such assays
- Settings: source organism: SARS coronavirus Tor2

Sequence	Relation qualifier	Kd / µM
EYADVFHLY	=	0.0277
GYLKPTTFML	≥	69.7
QMYKTPTLKY	=	3.12
DEEPMELDY	≥	73.6
EMVMCGGSLY	=	0.0199
LYEQVVMDY	≥	22.6
VYIGDPAQL	≥	77.9
DHEFVDEFY	=	13.9
TSQKSIVAY	=	8.25
DTVWEVQGY	=	0.00164
